experimentalSystem: Mitogen-activated protein kinase 14 (Homo sapiens)
Sequence (Q16539 whole entry): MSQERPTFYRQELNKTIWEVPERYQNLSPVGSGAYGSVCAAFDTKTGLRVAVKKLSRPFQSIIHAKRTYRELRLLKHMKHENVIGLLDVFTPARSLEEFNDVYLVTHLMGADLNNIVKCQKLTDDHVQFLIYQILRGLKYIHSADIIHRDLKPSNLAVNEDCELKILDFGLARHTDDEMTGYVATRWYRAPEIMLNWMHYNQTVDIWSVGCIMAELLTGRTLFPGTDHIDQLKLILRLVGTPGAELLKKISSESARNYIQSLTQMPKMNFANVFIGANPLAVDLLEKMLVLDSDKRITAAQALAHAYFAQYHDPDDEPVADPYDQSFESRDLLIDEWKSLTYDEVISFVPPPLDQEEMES
test: Inhibition of p38alpha
quantityName: IC50

>>> value("COc1cc2ncn(-c3cc(OCc4ccccc4C(F)(F)F)c(C(N)=O)s3)c2cc1OC [GW843682X]")
"> 15 µM"

====

Entries below carry reported IC50 on Serine/threonine-protein kinase PLK1 (Homo sapiens, UniProt P53350).
Sequence (P53350 whole entry): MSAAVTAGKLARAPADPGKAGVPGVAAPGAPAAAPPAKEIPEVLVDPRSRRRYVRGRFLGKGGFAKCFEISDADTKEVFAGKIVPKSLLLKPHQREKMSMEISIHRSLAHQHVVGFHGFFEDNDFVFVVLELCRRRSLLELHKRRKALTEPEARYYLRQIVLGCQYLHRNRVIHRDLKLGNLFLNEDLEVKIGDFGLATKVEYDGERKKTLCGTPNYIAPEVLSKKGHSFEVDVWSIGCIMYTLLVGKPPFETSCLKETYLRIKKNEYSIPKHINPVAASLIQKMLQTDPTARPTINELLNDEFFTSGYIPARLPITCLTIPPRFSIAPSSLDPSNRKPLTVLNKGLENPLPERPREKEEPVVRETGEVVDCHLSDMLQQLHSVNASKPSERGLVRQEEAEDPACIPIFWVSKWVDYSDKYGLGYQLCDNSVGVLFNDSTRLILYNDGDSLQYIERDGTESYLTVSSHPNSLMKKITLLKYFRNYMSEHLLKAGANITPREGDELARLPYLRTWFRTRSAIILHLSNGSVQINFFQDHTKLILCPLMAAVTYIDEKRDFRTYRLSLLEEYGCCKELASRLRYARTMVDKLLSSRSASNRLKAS
quantityName: IC50 (µM)

>>> value("NC(=O)c1sc(-n2cnc3cc(C(F)(F)F)ccc32)cc1OCc1ccccc1Br [GW853609X]")
0.3
>>> value("COc1cc2ncn(-c3cc(OCc4ccccc4C(F)(F)F)c(C(C)=O)s3)c2cc1OC [GSK-1030059A]")
0.085
>>> value("COc1cc2ncn(-c3cc(OCc4ccccc4Br)c(C(N)=O)s3)c2cc1OC")
0.002
>>> value("COc1cc2ncn(-c3cc(OCc4cccc(N(C)C)c4)c(C(N)=O)s3)c2cc1OC")
0.031

Data origin: ChEMBL document CHEMBL1143265
